Where do the numbers come from? From patent US20230381333A1.

Recorded In vitro activity compared to native-type peptide (%), vs Glucagon values for a group of binders are listed next.
# Subject Of Test: human GCG receptor (human, UniProt P47871 26-477)
# Sequence (P47871 26-477): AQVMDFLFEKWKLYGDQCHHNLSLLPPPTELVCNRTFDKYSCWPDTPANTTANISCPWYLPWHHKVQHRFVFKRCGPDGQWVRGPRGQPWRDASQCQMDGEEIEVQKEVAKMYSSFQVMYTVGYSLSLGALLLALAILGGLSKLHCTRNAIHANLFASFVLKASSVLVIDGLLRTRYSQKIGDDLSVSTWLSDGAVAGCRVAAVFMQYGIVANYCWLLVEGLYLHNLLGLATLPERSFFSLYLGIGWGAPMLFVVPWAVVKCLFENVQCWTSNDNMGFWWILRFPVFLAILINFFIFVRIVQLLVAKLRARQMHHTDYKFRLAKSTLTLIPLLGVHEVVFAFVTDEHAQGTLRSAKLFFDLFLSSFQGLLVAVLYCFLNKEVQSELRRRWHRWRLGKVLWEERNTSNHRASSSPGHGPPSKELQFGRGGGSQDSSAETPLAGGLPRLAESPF
# Protocol Notes: cell-based or functional assay
Bridge positions count the residues as written; N and C are the ends. Square brackets hold non-standard residues; d marks the D form. Ends that are not written are not given here. * marks the point of attachment. Acetyl(2-(4-imidazolyl)) = O=C(Cc1c[nH]cn1)*; Aib = CC(C)(N)C(=O)O
Parameter Measured: In vitro activity compared to native-type peptide (%), vs Glucagon

H[Aib]QGTFTSDYSKYLDEKACKDFVQWLLDGGPSSGAPPPS (bridge 16-20) [triple agonist of SEQ ID NO: 32]: 1.7%
{Acetyl(2-(4-imidazolyl))}-[Aib]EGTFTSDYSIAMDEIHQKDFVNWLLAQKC (bridge 15-19) [triple agonist of SEQ ID NO: 90]: < 0.1%
H[Aib]QGTFTSDCSKYLDSRAAQDFVQWLLDGGPSSGAPPPS [triple agonist of SEQ ID NO: 26]: 0.2%
Y[Aib]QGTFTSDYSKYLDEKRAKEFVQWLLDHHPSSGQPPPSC (bridge 16-20) [triple agonist of SEQ ID NO: 42]: 206%
{Acetyl(2-(4-imidazolyl))}-[Aib]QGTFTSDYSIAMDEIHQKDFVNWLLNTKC (bridge 15-19) [triple agonist of SEQ ID NO: 94]: < 0.1%
{Acetyl(2-(4-imidazolyl))}-[Aib]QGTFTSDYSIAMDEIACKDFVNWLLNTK (bridge 15-19) [triple agonist of SEQ ID NO: 61]: < 0.1%
HGQGTFTSDCSKYLDGQRAQEFVAWLLAGGPSSGAPPPS [triple agonist of SEQ ID NO: 47]: < 0.1%
HGQGTFTSDCSKYMDGQAAQDFVAWLLAGGPSSGAPPPS [triple agonist of SEQ ID NO: 45]: < 0.1%
{Acetyl(2-(4-imidazolyl))}-[Aib]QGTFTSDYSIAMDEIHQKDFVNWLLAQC (bridge 15-19) [triple agonist of SEQ ID NO: 85]: < 0.1%
[Acetyl(2-(4-imidazolyl))]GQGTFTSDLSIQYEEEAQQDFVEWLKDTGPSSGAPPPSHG [triple agonist of SEQ ID NO: 20]: < 0.1%
Y[Aib]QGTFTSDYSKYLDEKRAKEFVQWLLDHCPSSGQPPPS (bridge 16-20) [triple agonist of SEQ ID NO: 96]: 195%
